# system.tested: C-C chemokine receptor type 2 (Rattus norvegicus, UniProt O55193)
# Sequence (O55193 whole entry): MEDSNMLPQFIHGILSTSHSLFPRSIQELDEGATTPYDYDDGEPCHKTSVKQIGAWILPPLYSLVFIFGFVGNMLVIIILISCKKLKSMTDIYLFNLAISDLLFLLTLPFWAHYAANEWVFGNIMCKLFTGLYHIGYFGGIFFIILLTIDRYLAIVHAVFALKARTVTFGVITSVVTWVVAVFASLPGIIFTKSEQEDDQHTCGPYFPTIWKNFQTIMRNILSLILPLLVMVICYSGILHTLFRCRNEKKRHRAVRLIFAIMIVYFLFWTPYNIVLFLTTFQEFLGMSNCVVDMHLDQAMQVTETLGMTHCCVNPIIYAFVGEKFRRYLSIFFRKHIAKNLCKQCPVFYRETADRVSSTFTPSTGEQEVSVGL
# protocol.text: Antagonist activity at rat CCR2 receptor expressed in human THP-1 cells assessed as inhibition of MCP1-induced Ca2+ flux by FLIPR analysis
recorded.metric: IC50 (nM)
Numbers only, in nM.

Ask: Item: CC(C)N1CCN[C@@H](C(=O)N2CCN(C(=O)Nc3ccc(Cl)c(Cl)c3)CC2)C1 Test system: C-C chemokine receptor type 2 (Rattus norvegicus, UniProt O55193) Read-out: IC50 Value: ?
Reply: 200

###

# protocol.text: Aqueous solubility at pH 7. 4
# Format: physicochemical
# stated.conditions: buffer
recorded.metric: solubility (µM)
Numbers only, in µM.

Ask: What value of solubility has been reported for the following molecule? O=C(Nc1ccc(Cl)c(Cl)c1)N1CCN(C[C@@H]2CCCN(C3CC3)C2)CC1
Reply: 290

###

# protocol.text: Oral bioavailability in rat
# Assay type: ADME, organism-based
# stated.conditions: in vivo
recorded.metric: bioavailability (%)
Give bare numbers, in %.

Ask: Record request: bioavailability value, item O=C(Nc1ccc(Cl)c(Cl)c1)N1CCN(C[C@@H]2CCCN(C3CC3)C2)CC1
Reply: 11

###

# protocol.text: Aqueous solubility of the compound
# Assay type: physicochemical
# stated.conditions: buffer
recorded.metric: solubility

Ask: Field request: solubility | item: CC(C)N1CCN[C@@H](C(=O)N2CCN(C(=O)Nc3ccc(Cl)c(Cl)c3)CC2)C1
Reply: > 3.1 mM

###

# system.tested: C-C chemokine receptor type 2 (Homo sapiens)
# Sequence (P41597 whole entry): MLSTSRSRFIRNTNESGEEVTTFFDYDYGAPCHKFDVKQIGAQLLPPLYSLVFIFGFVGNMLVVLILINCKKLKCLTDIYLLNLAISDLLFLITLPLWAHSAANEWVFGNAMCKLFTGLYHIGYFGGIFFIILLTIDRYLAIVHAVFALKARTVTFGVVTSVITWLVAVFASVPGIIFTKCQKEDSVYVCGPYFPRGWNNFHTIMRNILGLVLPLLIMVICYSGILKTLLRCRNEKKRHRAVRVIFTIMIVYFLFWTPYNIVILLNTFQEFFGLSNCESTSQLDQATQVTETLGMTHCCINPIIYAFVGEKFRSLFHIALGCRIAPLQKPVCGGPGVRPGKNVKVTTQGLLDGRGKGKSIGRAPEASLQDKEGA
# protocol.text: Antagonist activity at human CCR2 receptor expressed in human THP-1 cells assessed as inhibition of MCP1-induced Ca2+ flux by FLIPR analysis
# Assay type: functional, cell-based
recorded.metric: pIC50
Answers are plain numbers, as −log10 of the molar value.

| compound | pIC50 |
| --- | --- |
| CCN1CCCC(CN2CCN(C(=O)Nc3ccc(Cl)c(Cl)c3)CC2)C1 (racemic) | 6.20 |
| CN1CCCC(CN2CCN(C(=O)Nc3ccc(Cl)c(Cl)c3)CC2)C1 (stereo not given) | 6.02 |
| CC(C)N1CCC[C@@H](CN2CCN(C(=O)Nc3ccc(Cl)c(Cl)c3)CC2)C1 | 7.24 |
| CC(C)N1CCO[C@@H](CN2CCN(C(=O)Nc3ccc(Cl)c(Cl)c3)CC2)C1 | 7.38 |
| N#Cc1cccc(NC(=O)N2CCN(C[C@@H]3CCCN(C4CC4)C3)CC2)c1 | 5.23 |
| O=C(Nc1cccc(C(F)(F)F)c1)N1CCN(C[C@@H]2CCCN(C3CC3)C2)CC1 | 6.24 |

Record pIC50 per entry; entries follow.
1. CN1CCN[C@@H](C(=O)N2CCN(C(=O)Nc3ccc(Cl)c(Cl)c3)CC2)C1
2. CCN1CCN[C@@H](C(=O)N2CCN(C(=O)Nc3ccc(Cl)c(Cl)c3)CC2)C1
3. O=C(Nc1ccc(Cl)c(Cl)c1)N1CCN(C(=O)[C@H]2CN(C3CC3)CCN2)CC1
4. CC(C)N1CCN[C@@H](C(=O)N2CCN(C(=O)Nc3ccc(Cl)c(Cl)c3)CC2)C1
5. O=C(Nc1ccc(F)c(Cl)c1)N1CCN(C[C@@H]2CCCN(C3CC3)C2)CC1

Reply:
[6.44, 7.26, 7.42, 8.24, 7.12]

###

# system.tested: C-C chemokine receptor type 2 (Homo sapiens)
# protocol.text: Antagonist activity at human CCR2 receptor expressed in human THP-1 cells assessed as inhibition of MCP1-induced Ca2+ flux by FLIPR analysis
# Assay type: functional, cell-based
Assign IC50 to each entry below.
One number for each entry, in nM.

Take a look at these entries with their results.
| molecule.smiles | readout.unit | IC50 |
| --- | --- | --- |
| O=C(Nc1ccc(Cl)c(Cl)c1)N1CCN(C[C@@H]2CCCN(CCc3ccccc3)C2)CC1 | nM | 42 |
| Cc1ccc(NC(=O)N2CCN(C[C@@H]3CCCN(C4CC4)C3)CC2)cc1Cl | nM | 184 |
| O=C(Nc1ccc(Cl)cc1)N1CCN(C[C@@H]2CCCN(C3CC3)C2)CC1 | nM | 220 |

Ask: Enter reported IC50 observed with C-C chemokine receptor type 2 (Homo sapiens) for CCN1CCC[C@@H](CN2CCN(C(=O)Nc3ccc(Cl)c(Cl)c3)CC2)C1
Reply: 174

The measured values listed here are drawn from ChEMBL document CHEMBL2034889.
